The measurements presented in this section are drawn from ChEMBL document CHEMBL4251635.

# Test system: Mycobacterium tuberculosis
# Experiment: Antimycobacterial activity against replicating Mycobacterium tuberculosis H37Rv incubated for 1 week in presence of piperine by MABA method
# Type: functional
# Condition context: 168 h
Value type: MIC (µM)

1. Cc1ccc2oc(-c3cccc(NC(=O)Nc4ccccc4)c3)nc2c1    72.9
2. Cc1ccc(NC(=O)Nc2cccc(-c3nc4ccccc4o3)c2)cc1    36.2
3. Cc1ccc(NC(=S)Nc2cccc(-c3nc4cc(C)ccc4o3)c2)cc1    77

---

The following compounds are shown together with reported MIC values.
# Test system: Mycobacterium tuberculosis
# Experiment: Antimycobacterial activity against replicating Mycobacterium tuberculosis H37Rv incubated for 1 week in presence of piperine by MABA method
# Type: functional
# Condition context: 168 h
Value type: MIC (µM)

1. CO[C@H]1/C=C/O[C@@]2(C)Oc3c(C)c(O)c4c(O)c(c(/C=N/N5CCN(C)CC5)c(O)c4c3C2=O)NC(=O)/C(C)=C\C=C\[C@H](C)[C@H](O)[C@@H](C)[C@@H](O)[C@@H](C)[C@H](OC(C)=O)[C@@H]1C    0.21
2. O=C(Nc1ccc(F)cc1)Nc1cccc(-c2nc3ccccc3o2)c1    72.1
3. Cc1ccc2oc(-c3cccc(NC(=S)Nc4ccccc4)c3)nc2c1    8.69
4. CC[C@@H](CO)NCCN[C@@H](CC)CO    3.82
5. Cc1ccc2oc(-c3cccc(NC(=S)Nc4ccc(Cl)cc4)c3)nc2c1    2.01
6. S=C(NCc1ccccc1)Nc1cccc(-c2nc3ccccc3o2)c1    2.21
7. NNC(=O)c1ccncc1    0.78
8. Cc1ccc2oc(-c3cccc(NC(=S)Nc4ccc([N+](=O)[O-])cc4)c3)nc2c1    1.91
9. COc1ccc(NC(=O)Nc2cccc(-c3nc4ccccc4o3)c2)cc1    69.3
